Kindly supply the reported growth values for the records listed here.
# System: LOX IMVI melanoma
# Assay Explanation: NCI-60 one-dose screen, 48 h (100 = growth as untreated, 0 = no growth, -100 = all killed)
# Assay Setup: 10 µM
This is part of a sample that, as a whole, favours compounds with a hit. Of some 83,000 tested, about 20% had one in any assay.
Report the figure in % without appending any unit label.

Record summary for O=C1CCC(N2Cc3cc(CC(=O)Nc4ccc(N5CCCCC5)cc4)ccc3C2=O)C(=O)N1 (configuration not stated) : reported growth = 105

Record summary for "CCCCSc1nc(Nc2ccc(/C(C)=N/NC(N)=S)cc2)c(C#N)c(-c2ccccc2)n1" : reported growth = 5.73

Record summary for "COc1nccnc1NS(=O)(=O)c1ccc(NC2=C(Cl)C(=O)c3nc(C)ccc3C2=O)cc1" : reported growth = 71.7

Record summary for "O=C(c1ccc([N+](=O)[O-])c([N+](=O)[O-])c1O)n1[nH]c(=O)c2ccccc2c1=O" : reported growth = 56.6

Record summary for "COc1ccc(-c2cc(-c3cc(C(=O)c4ccc(Br)cc4)n4ccc(C)cc34)nc(N)c2C#N)cc1" : reported growth = 54.6

Record summary for "O=C(CSc1nnc(-c2ccc3nc(-c4ccccc4)[nH]c3c2)o1)Nc1ccc(Br)cc1" : reported growth = -4.8

Record summary for "N#Cc1c(NC(=O)c2ccc(C(O)(C(F)(F)F)C(F)(F)F)cc2)sc2c1CCC(=O)C2" : reported growth = -96.4

Record summary for "CS(=O)(=O)Nc1ccc(-c2ccc3c(c2)ncn3-c2ccc(NC(=O)Nc3ccc(Br)cc3)cc2)cc1" : reported growth = 1.1

Record summary for "O=c1oc2ccc(-c3ccc(F)cc3F)cc2c(=O)n1-c1ccc(F)cc1" : reported growth = 1.46

Record summary for "O=C(Cn1cc(CSc2nnc3oc4ccccc4n23)nn1)Nc1ccc(Br)cc1" : reported growth = 54.9

Record summary for "COc1ccc2[nH]c(=O)c(CSc3ccc(Nc4nccc(-c5ccc(Cl)cc5)n4)cc3)cc2c1" : reported growth = 89

Record summary for "CCOC(=O)c1c(CSc2ccccc2)n(C)c2cc(CN(C)C)c(O)c(CN(C)C)c12" : reported growth = 22.2

Record summary for O=C(c1ccc(Cl)cc1)C1[C@H](c2ccccc2Br)[C@@H](c2ccccc2)NC12C(=O)Nc1ccc(Br)cc12 (some centres not stated) : reported growth = -100

Record summary for "COc1ccc2[nH]c(O)c(N=NC(=O)COc3ccc(NC(=O)Nc4ccc(Cl)c(Cl)c4)cc3)c2c1" : reported growth = -100

Record summary for "Cc1ccc(-c2nc3ccc(C(=O)N=Nc4c(O)[nH]c5ccc([N+](=O)[O-])cc45)cc3[nH]2)cc1" : reported growth = 54.9

Record summary for "O=c1c2ccccc2nc(COc2ccccc2)n1/N=C/c1ccc(N2CCOCC2)cc1" : reported growth = 69.6

Record summary for "Cc1ccc(C(C)C)cc1NC(=O)c1ccccc1O" : reported growth = 40.1

Record summary for "COc1ccc2[nH]cc(/C=N/Nc3cccc(Cl)n3)c2c1" : reported growth = 28.8

Record summary for CC(=O)C1=C(C)NC(SCC(=O)Nc2ccc(S(=O)(=O)Nc3cc(C)on3)cc2)=NC1c1ccccc1 (configuration not stated) : reported growth = 92.8

Record summary for "O=C(Nc1ccncc1)c1ccc(-n2c(=O)[nH]c3ccccc3c2=O)cc1" : reported growth = 83.9

Record summary for "COc1ccc(OC)c(/C=N/NC(=O)c2ccc3nc(-c4ccc(Cl)cc4)[nH]c3c2)c1" : reported growth = 65.4

Record summary for "COc1cc2c3c(n(CCCNC(C)C)c(=O)c2cc1OC)-c1nc2c(cc1C3=O)OCO2" : reported growth = -97.3

Record summary for CN1C(=O)N(C)C2SC(N/N=C/C=C/c3ccccc3)=NC21 (configuration not stated) : reported growth = 68.1

Record summary for "Cn1cc(/C=N/Nc2ccnc3cc(Cl)ccc23)c2ccccc21" : reported growth = -83.7

Record summary for "O=S(=O)(Nc1ncccn1)c1ccc(-n2c(-c3ccc(Br)cc3)nc(-c3ccccc3)c2-c2ccccc2)cc1" : reported growth = 32.2

Record summary for "CCN1CCN(Cc2ccc(C(=O)Nc3cccc(-c4cn(-c5ccc6oc(=O)ccc6c5)nn4)c3)cc2C(F)(F)F)CC1" : reported growth = -100

Record summary for "O=C(Nc1nc2ccccc2s1)c1ccc(Br)cc1" : reported growth = 82.9
